Some compounds, each annotated with its measured pEC50.
target.entity: Ba/F3 stable cells (Homo sapiens, UniProt P00533, DUP767-769, cells depend on it)
Construct: EC50 Ba/F3-EGFR V769-D770insASV; other: Ba/F3-EGFR V769-D770insASV cells, 72 h, CCK-8
Sequence (P00533 with tags, fused parts or gaps DUP767-769): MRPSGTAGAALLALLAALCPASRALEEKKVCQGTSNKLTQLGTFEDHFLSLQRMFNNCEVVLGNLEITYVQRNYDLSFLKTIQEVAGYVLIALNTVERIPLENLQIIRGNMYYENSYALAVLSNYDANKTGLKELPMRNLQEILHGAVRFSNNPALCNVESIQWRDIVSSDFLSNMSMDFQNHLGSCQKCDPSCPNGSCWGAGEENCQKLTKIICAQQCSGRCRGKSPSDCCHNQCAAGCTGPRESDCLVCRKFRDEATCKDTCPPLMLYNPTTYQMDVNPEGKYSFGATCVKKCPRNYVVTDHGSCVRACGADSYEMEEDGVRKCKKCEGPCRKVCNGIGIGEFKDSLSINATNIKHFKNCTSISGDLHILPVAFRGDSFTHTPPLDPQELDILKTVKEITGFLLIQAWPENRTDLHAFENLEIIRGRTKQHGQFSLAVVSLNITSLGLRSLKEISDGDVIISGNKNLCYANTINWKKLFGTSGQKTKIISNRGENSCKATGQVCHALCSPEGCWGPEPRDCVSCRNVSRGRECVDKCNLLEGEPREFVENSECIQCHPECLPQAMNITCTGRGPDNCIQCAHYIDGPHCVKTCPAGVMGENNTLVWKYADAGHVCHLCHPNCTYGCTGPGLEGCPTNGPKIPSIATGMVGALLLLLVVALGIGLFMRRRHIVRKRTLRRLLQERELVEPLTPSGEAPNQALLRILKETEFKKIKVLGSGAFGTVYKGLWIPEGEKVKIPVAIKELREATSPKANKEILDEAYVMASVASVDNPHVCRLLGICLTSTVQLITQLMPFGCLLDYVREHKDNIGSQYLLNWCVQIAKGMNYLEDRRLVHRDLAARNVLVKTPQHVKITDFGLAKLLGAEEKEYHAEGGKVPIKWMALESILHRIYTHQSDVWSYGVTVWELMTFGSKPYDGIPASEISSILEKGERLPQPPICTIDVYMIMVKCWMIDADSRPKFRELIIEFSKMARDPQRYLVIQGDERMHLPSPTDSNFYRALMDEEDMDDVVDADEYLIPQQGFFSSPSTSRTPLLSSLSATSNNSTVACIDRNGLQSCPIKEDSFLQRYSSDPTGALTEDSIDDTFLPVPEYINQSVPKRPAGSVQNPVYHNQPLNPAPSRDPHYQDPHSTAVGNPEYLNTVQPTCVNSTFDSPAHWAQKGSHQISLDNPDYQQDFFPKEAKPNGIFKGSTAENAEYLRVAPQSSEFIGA
assay.name: EC50 assay: Ba/F3 stable cell proliferation (CCK-8, 72 h)
condition: Ba/F3-EGFR V769-D770insASV cells
pEC50: −log10 of the molar value.

Observe how each entry below is paired with its result.
Exercise: What does the data say about its pEC50? Entry: C=CC(=O)N1CCCC(c2ccc3ncnc(Nc4ccc(Cl)c(Cl)c4F)c3c2)C1 (centres unmarked)
Solution: ≥ 6.70

Exercise: What does the data say about its pEC50? Entry: `C=CC(=O)N1CCC(Oc2cc3c(Nc4ccc5ncccc5c4)ncnc3cc2OC)CC1`
Solution: ≥ 6.70

Exercise: What does the data say about its pEC50? Entry: `C=CC(=O)N1CC(c2cc3c(NCc4ccc(F)cc4)ncnc3cc2OC)C1`
Solution: 6.00 to 6.70

Exercise: What does the data say about its pEC50? Entry: `C=CC(=O)N1CCC(Oc2cc3c(NCc4cc(Cl)cc(Cl)c4)ncnc3cc2OC)CC1`
Solution: < 6.00

Exercise: What does the data say about its pEC50? Entry: `C=CC(=O)N1CCC(Oc2cc3c(Nc4cc5oc6ccccc6c5cc4OC)ncnc3cc2OC)CC1`
Solution: < 6.00

Exercise: What does the data say about its pEC50? Entry: `C=CC(=O)N1CCC(Oc2cc3c(NCc4cccc(F)c4)ncnc3cc2OC)CC1`
Solution: ≥ 6.70

---
Exercise: What does the data say about its pEC50? Entry: `C=CC(=O)N1CCC(Oc2cc3c(Nc4ccc(Cl)c5ccccc45)ncnc3cc2OC)CC1`
Solution: ≥ 6.70

Exercise: What does the data say about its pEC50? Entry: `C#CC(=O)N1CC(c2cc3c(Nc4ccc(OCc5ccccc5)c(Cl)c4F)ncnc3cc2OC)C1`
Solution: < 6.00
